Experiment: in vitro
Conditions: human, hela cells, % viability
measure_name: viability at 28.5 h, 10 µM (%)

Cc1cn(CC(=O)N2CCC3(CCN(Cc4ccccc4)C3)C2)c(=O)[nH]c1=O (stereo not shown) [CBK136840] ... 91.6
CCOc1cc(/C=C2/SC(=S)N(c3cccc(Cl)c3)C2=O)ccc1OCC(=O)O [CBK264966] ... 94.2
CSCCN1CCCN(c2nccc(OCC3COc4ccccc4O3)n2)CC1 (stereo not shown) [CBK083978] ... 91.1
COc1ccccc1C(=O)N1CCC(Cc2ccccc2-c2ccccc2)(C(N)=O)CC1 [CBK285739] ... 96.4
CC(Oc1ccc(Cl)cc1Cl)C(=O)Nc1ccc(N2CCN(C)CC2)cc1 (stereo not shown) [CBK266780] ... 94.1
Cc1cc(C)nc(N2CCC(CC(=O)N(C)CC(C)c3ccccc3)CC2)n1 (stereo not shown) [CBK286105] ... 83.5
O=C(Cn1ncc2ccccc2c1=O)NNC(=S)NC1CC2CCC1C2 (stereo not shown) [CBK267892] ... 106
O=C1COc2ccc(S(=O)(=O)NCCc3ccccc3)cc2N1 [CBK270162] ... 114
COc1ccc(OCC(=O)N/N=C/c2ccc([N+](=O)[O-])s2)c(I)c1 [CBK261374] ... 93.1
CCOc1ccc(CNCc2ccc(C(=O)O)cc2)cc1OC [CBK269590C] ... 87.3
CC(C)Cn1cnc(S(=O)(=O)N2CCN(CC(=O)NC3CC3)CC2)c1 [CBK304223] ... 95.8
c1cc(CCCOc2cncc(N3CCCC3)n2)ccn1 [CBK115760] ... 85.3
NS(=O)(=O)c1ccc(NC(=S)NNC(=O)c2ccc(Br)o2)cc1 [CBK266972] ... 95.8
CCC12CN3CC(CC)(CN(C1)C3c1ccccc1[N+](=O)[O-])C2=O (stereo not shown) [CBK264604] ... 116
CN(C)[C@@H]1CN(C(=O)C2CC2)C[C@H]1c1cn(C)c2ccccc12 [CBK282681] ... 110
CC(C)C(=O)N1CCCc2cc(C(O)CN3CCCCC3)ccc21 (stereo not shown) [CBK282127] ... 104
CCOC(=O)c1cnc(SCCc2ccccc2)nc1N [CBK085871] ... 88.1
O=C(O)CNC(=O)CN1C(=O)c2ccc(C(=O)O)cc2C1=O [CBK264080] ... 90.8
Cc1cc(/C=C(\C#N)c2nc3ccccc3[nH]2)c(C)n1-c1ccc(C(=O)O)cc1 [CBK267262] ... 94.7
